These data points were gathered from paper PMC6146057.

- Assay notes: Mouse plasma-brain exposure
- Type: in vivo
- Test parameters: male, C57BL/6J, brain and plasma, intraperitoneal, 100 mg/kg
Endpoint name: Kp uu at 0.25 h

[[record]]
molecule = "O=C(N[C@H]1CCCC[C@@H]1O)[C@H]1CN(Cc2ccc(-n3cccn3)cc2)c2ccccc2O1 [VU0486846]"
numeric_result = 0.17

